Experiment: melting temperature; melt of duplexes
Conditions: sodium 0.0675 M; strand 1 µM
MEASUREMENT_NAME: Tm (°C)
// return numeric value only (unit: °C, not printed)

q: Determine from records and report Tm for CGACGTGCCGGATGTGCTG+CAGCACATTCTGCACGTCG ((((((((.(.((((((((+)))))))).).))))))))
a: 52.3

q: Determine from records and report Tm for CGACGTGCCGAATGTGCTG+CAGCACATCTAGCACGTCG ((((((((...((((((((+))))))))...))))))))
a: 50.1

q: Determine from records and report Tm for CGACGTGCCCCATGTGCTG+CAGCACATTACGCACGTCG ((((((((...((((((((+))))))))...))))))))
a: 54.6

q: Determine from records and report Tm for CGACGTGCAAAATGTGCTG+CAGCACATGGGGCACGTCG ((((((((...((((((((+))))))))...))))))))
a: 51.7

Further cases:
q: Determine from records and report Tm for CGACGTGCCGAATGTGCTG+CAGCACATCGAGCACGTCG ((((((((...((((((((+))))))))...))))))))
a: 55.3

q: Determine from records and report Tm for CGACGTGCTCGATGTGCTG+CAGCACATAAAGCACGTCG (((((((((..((((((((+))))))))..)))))))))
a: 52.7

q: Determine from records and report Tm for CGACGTGCGGAATGTGCTG+CAGCACATCCTGCACGTCG ((((((((.(.((((((((+)))))))).).))))))))
a: 55.2
